Numbers sourced from patent US20240327502A1.

Kindly state Octet binding response for each of the entries shown.
# assayed.system: T1, hMPV PostF trimer (human metapneumovirus, strain B2)
# T1 construct: also called MPV PostF (dPFv1)
# measurement.notes: BLI, mAb on anti-human Fc sensor
Answers are plain numbers, in nm.

Known results for binders:
binder="M3D10 (antibody, V domains shown, IgG) VH: QVQLQESGPGLVKPSETLSLTCTVSGGSVSTYYWTWIRQPPGKGLDWIGYIYHNGNINYNPSLKSRVTMSVDTSKNQFSLKLTSVTAADTALYYCATVSFIGYSLYYFDRWGQGTLVTVSS VL: DIQMTQSPSSLSASVGDRVTITCRASQNIASFLNWYQQRPGKAPDLLIYAASTLQTGVPSRFSGSGSGTDFTLAISSLQPEDFATYYCQQSYNTPFTFGQGTKLEIK" experimental_readout="Octet binding response" numeric_value=0.473
binder="M3E04 (antibody, V domains shown, IgG) VH: EVQLVESGGGLVKPGGSLRLSCAGSGFTFSSYSMNWVRQAPGKGLEWVSSISASSSYIYYADSLKGRFTISRDNAKNSLYLQMNSLRAEDTAVYYCARANYGSGNYYNPKWFDPWGQGTLVTVSS VL: QSVLTQPPSVSGAPGQRVTISCTGSSSNIGAGYDVHWYQQFPGTAPKVLIYGNNNRPSGVPDRFSGSKSGTSASLAISGLQAEDEADYYCQSYDSSLSGSIFGGGTKLTVL" experimental_readout="Octet binding response" numeric_value=0.0262
binder="M3D05 (antibody, V domains shown, IgG) VH: QVQLVQSGAEVKQPGASVKVSCKASGYTFSGYYIQWVRQAPGQGLEWMGWINPNSGGTNFAQKFQGRVTMTSDTSTSAAYMELSSLRSDDTAVYYCVRGQQLTRQYYFGMDVWGQGTTVTVSS VL: QSVLTQPPSVSGAPGQRVIISCSGSSSNIRSNAVNWYQQLPGKAPKLLIFYDGLLPSGVSDRFSGSKTGNSASLAISGLQSEDEADYYCAAWDDSLNGPVFGGGTKLTVL" experimental_readout="Octet binding response" numeric_value=0.539
binder="M1C7 (antibody, V domains shown, IgG; also called MIC7) VH: QVQLVESGGGLVQPGRSLRLSCAASGFTFSSYAMHWVRQAPGKGLEWVAIITYDGSGKYYADSLEGRITISRDDPKSMLYLHMRSLTAEDTAVYYCVKSGSFSSAFWLEDWGQGTLVTVSS VL: EIVLTQSPATLSLSPGERATLSCRASQSISNFVAWYQQKPGQAPRLLIYDASNGATGTPARFSGSGSGTDFTLTISSLEPEDFAVYYCQQRSTWTFGQGTKVEIKR" experimental_readout="Octet binding response" numeric_value=0.0541
binder="M2D01 (antibody, V domains shown, IgG) VH: QVQLQESGPGVVKPSETLSLTCTVSRGAITDYHLNWIRQPPGKGLEWIGYISSSGSTNYNPSLKSRVTISQVMSGTQFSLKLTSMSAADTALYYCASSSGRYWGGALDLWGQGTQVIVSS VL: DIVMTQSPDSLAVPLGERATINCKSSQSLLYTSNNKNSLAWYQQKPGQPPKLLLFWASTREFRVPDRFSGSGSGTDFTLTISSLQAEDVAVYYCQQYYTAPYTFGPGTKLEIK" experimental_readout="Octet binding response" numeric_value=0.493
binder="M3A04 (antibody, V domains shown, IgG) VH: QVQLVESGGGVVQPGRSLRLSCAASGLTFSTYVMHWVRQAPGKGLEWVAVISYDGTNEHYADSVKGRFTISRDNSKNTLYLQMNSLRPEDTAVYYCARGTADYDVWSGSAWGGFDYWGQGTLVTVSS VL: DIQMTQSPSSLSASVGDRVTITCRASQSISSYLNWYQQKPGKAPKLLMYTVSSLPSGVPSRFSGSGSGTDFTLTISSLQPEDFATYYCQQSYNIPYTFGQGTKLEIK" experimental_readout="Octet binding response" numeric_value=-0.0261
binder="M2C08 (antibody, V domains shown, IgG) VH: QVQLVQSGAEVKKPGASVIVSCRASGFTFSLYTMHWVRQAPGQGLEWMGWISADNSNTKYSQKYQDRVTITMDTSATTLFMEISSLRSEDTAVYYCTRGPAYYFDSSGFAFDIWGQGTLVTVSS VL: EIVLTQSPGTLSLSPGERATLSCRASQSVSRTYLGWYQQRPGLAPRLLIYGTSSRATGIPDRFSGSGSGTDFTLTISRLEPEDFATYYCQHFGSSLTFGGGTKVEIK" experimental_readout="Octet binding response" numeric_value=-0.0185
binder="M2B05 (antibody, V domains shown, IgG) VH: QVQLQQWGAGLLRPSETLSLTCTVYGGSFGGYHWSWIRQSPGKGLEWIGEIDHGGNTNFNPSLKSRVTISVDRSKKQFSLKLTSVTAADTAVYYCARGFGVVINNWFDPWGQGTLVTVSS VL: DIQMTQSPSSLSASVGDRVTITCRASQTINSYLNWYQQKPGKAPTLLIYTVSSLQSGVPSRFSGSGSGTVFSLTISSLQPEDFATYYCQQSYNSPYTFGQGTKLEIK" experimental_readout="Octet binding response" numeric_value=0.486

Items follow; give Octet binding response for each.
1. M2B11 (antibody, V domains shown, IgG) VH: QVQLVQSGTEVKKPGASVKVSCKASGYTFTSHDINWLRQATGQGLEWLGWMNPNSATTGYAQKFQGRVTLTRDISISTAYMELSSLRSDDTAVYYCARNRHYYYADGPTRDAFDIWGQGTVVTVSS VL: SYELTQTPTVSVSPGQTASITCSGDELGHKYTSWYQQKPGQSPVLVVYQDTKRPSGIPERFSGSNSGNTATLTISGTQVMDEADYYCQAWDSGTVLLGGGTKLTVL
2. M3E05 (antibody, V domains shown, IgG) VH: EVQLVESGGSVIQPGGSLRLSCAASGFSVRTNYMNWVRQAPGKGLEWVSVIYSDGRTYYSDSVKGRFTISRDNSMNNVFLQMNSLRAEDTAVYYCARDPTFYSSSWWYLDHWGQGTQVTVSS VL: SYELTQALSVSVARGQTAKITCGGNNIGVRNVHWYQQKPGQAPVLVIYRDNIRPSGIPERFSGSNSGNMAALTISSAQEGDEADYYCQVWDSNTAHVIFGGGTKLTVL

1: -0.0289; 2: 0.509
